- Tested on: Serine/threonine-protein kinase D1 (Homo sapiens) (UniProt Q15139)
- Sequence (Q15139 whole entry): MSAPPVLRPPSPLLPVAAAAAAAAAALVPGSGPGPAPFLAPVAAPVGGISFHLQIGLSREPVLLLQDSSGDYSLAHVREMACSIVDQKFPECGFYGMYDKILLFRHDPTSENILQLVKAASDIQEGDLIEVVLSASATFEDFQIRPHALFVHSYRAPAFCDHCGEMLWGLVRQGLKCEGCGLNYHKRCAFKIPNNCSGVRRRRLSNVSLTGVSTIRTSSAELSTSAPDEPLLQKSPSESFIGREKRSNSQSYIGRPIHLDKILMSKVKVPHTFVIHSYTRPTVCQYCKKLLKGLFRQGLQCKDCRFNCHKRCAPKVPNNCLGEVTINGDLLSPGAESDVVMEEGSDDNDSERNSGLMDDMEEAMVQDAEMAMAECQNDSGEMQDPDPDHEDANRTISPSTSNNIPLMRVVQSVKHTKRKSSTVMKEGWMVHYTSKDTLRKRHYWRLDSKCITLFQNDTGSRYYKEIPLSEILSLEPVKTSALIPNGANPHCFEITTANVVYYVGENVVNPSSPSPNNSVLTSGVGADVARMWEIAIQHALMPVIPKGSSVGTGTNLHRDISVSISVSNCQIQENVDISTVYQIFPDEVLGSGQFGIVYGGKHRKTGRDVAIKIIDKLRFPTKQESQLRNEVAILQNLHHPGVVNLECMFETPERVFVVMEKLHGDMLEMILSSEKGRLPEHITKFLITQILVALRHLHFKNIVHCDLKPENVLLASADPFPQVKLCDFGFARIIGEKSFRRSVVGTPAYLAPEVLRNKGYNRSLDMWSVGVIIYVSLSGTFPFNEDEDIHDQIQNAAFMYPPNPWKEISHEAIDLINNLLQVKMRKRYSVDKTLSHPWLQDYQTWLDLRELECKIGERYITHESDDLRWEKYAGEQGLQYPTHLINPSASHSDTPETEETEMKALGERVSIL
- Settings: at 10 µM
Assign labels as follows, please: Satisfied for residual activity below 70%; Not satisfied for residual activity equal to or exceeding 70%.

Worked examples follow.
>>> discrete_label("COc1cc2ncnc(Nc3ccc(O)c(Br)c3)c2cc1OC")
"Satisfied"
>>> discrete_label("CO[C@H]1C[C@@H]2CC[C@@H](C)[C@@](O)(O2)C(=O)C(=O)N2CCCC[C@H]2C(=O)O[C@H]([C@H](C)C[C@@H]2CC[C@@H](O)[C@H](OC)C2)CC(=O)[C@H](C)/C=C(\\C)[C@@H](O)[C@@H](OC)C(=O)[C@H](C)C[C@H](C)/C=C/C=C/C=C/1C")
"Not satisfied"
>>> discrete_label("N#Cc1cnc2cnc(NCc3cccnc3)cc2c1Nc1ccc(F)c(Cl)c1")
"Satisfied"
>>> discrete_label("O=C1NC(=O)/C(=C/c2ccc3c(c2)OC(F)(F)O3)S1")
"Not satisfied"
>>> discrete_label("COc1ccc(S(=O)(=O)N(CCO)c2ccccc2CN(C)C/C=C/c2ccc(Cl)cc2)cc1")
"Not satisfied"

input: Is the reported residual activity for CC(=O)c1ccc(N2CCOCC2)cc1O strictly below 70%?
output: Not satisfied

input: Is the reported residual activity for Cc1ccc(NC2=CC(=O)c3sc(C)nc3C2=O)cc1 strictly below 70%?
output: Not satisfied

Where do the numbers come from? From ChEMBL document CHEMBL2218924.
